Assay: Cmax in SD […] at 20 mg/kg, po measured for 24 hrs
Format: ADME, organism-based
Conditions: in vivo
parameter_measured: Cmax (ng/mL)

>>> print(df.to_string())
              compound_structure_string  parameter_measured  unit_of_measure  meas_value
0  O=C(COc1ccc(Br)cc1)Nc1ccc2nc[nH]c2c1                Cmax            ng/mL        2900

----------
Target: P2Y purinoceptor 14 (Homo sapiens) (UniProt Q15391)
Sequence (whole entry): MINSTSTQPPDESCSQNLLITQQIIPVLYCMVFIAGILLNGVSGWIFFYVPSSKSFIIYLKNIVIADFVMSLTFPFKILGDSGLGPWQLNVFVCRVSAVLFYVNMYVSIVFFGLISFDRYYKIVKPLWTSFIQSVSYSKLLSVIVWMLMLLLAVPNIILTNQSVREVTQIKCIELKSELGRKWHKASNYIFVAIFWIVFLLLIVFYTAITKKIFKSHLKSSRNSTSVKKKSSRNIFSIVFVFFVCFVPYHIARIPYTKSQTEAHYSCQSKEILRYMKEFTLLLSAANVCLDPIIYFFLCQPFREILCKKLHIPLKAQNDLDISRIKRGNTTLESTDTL
Details: HEK293, dose 100.0 nM, time 30.0 min
parameter_measured: inhibition (%)

>>> print(df.to_string())
                  compound_structure_string  meas_value
0       O=Cc1ccc(OCC(=O)Nc2ccc3cccnc3c2)cc1        17.6
1      COc1ccc(OCC(=O)Nc2ccc3nc[nH]c3c2)cc1        10.2
2          Cc1ccc(OCC(=O)Nc2ccc3ncoc3c2)cc1          32
3          Cc1ccc(OCC(=O)Nc2ccc3ncsc3c2)cc1        17.9
4       Cc1ccc(OCC(=O)Nc2ccc3cn[nH]c3c2)cc1        11.3
5        O=C(COc1ccc(CO)cc1)Nc1ccc2cccnc2c1        16.3
6        O=C(COc1ccc(Cl)cc1)Nc1ccc2cccnc2c1        12.1
7        O=C(COc1ccc(Br)cc1)Nc1ccc2cccnc2c1        15.2
8   CC(C)c1ccc(OCC(=O)Nc2ccc3nc[nH]c3c2)cc1        21.8
9  O=C(COc1ccc(C(F)(F)F)cc1)Nc1ccc2cccnc2c1        38.3

Taken from ChEMBL document CHEMBL5512695.
